Provenance of the data: patent US20240384268A1

# experimental_system: TLR8 (Homo sapiens, UniProt Q9NR97)
# Sequence (Q9NR97 27-1041): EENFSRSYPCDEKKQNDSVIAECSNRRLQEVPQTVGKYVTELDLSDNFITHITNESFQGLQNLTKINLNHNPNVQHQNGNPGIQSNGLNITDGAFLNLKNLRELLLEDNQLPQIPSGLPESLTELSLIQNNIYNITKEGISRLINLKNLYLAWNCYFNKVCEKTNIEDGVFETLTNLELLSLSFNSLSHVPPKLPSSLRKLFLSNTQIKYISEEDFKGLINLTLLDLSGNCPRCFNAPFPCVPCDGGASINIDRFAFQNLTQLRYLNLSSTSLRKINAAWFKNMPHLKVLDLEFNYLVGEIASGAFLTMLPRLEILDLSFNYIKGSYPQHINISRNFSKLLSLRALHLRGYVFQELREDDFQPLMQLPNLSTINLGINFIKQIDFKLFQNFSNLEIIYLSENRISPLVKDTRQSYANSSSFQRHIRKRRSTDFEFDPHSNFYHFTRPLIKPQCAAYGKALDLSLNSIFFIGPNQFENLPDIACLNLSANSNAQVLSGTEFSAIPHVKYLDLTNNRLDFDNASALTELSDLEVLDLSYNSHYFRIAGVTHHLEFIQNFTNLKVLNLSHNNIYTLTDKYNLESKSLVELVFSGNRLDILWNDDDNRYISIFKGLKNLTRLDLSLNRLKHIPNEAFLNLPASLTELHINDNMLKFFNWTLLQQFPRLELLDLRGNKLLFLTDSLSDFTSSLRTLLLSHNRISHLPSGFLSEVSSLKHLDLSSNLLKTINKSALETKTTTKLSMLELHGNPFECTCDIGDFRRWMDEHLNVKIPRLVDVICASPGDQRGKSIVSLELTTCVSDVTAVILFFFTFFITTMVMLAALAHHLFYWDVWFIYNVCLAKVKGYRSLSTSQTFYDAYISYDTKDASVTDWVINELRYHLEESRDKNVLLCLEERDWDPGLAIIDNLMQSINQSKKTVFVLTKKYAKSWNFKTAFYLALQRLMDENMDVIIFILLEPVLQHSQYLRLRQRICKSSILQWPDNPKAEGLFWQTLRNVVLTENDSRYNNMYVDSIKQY
# test_protocol: HEK-TLR8 NF-κB-luciferase reporter, R848 or Motolimod stimulation (potentiation or inhibition)
# Format: cell-based
# Set-up: expressed in transfected cells; host or cells: 293XLhTLR8 (HEK293)
# test_settings: MOE-modified ASO at 500 nM; averaged NF-κB-Luciferase relative to R848 condition (fold increase)
measured_endpoint: TLR8 500 nM
The reply should be a number, written without any unit.

Data request: Param item = CCAACACTTCGTGGGGTCCT (antisense; 2'-MOE modified, pattern not given here) [HPRT-666 MOE] ; retrieve measured TLR8 500 nM.
Data returned: 1.185

Data request: And for TAGTCAAGGGCATATCCTAC (antisense; 2'-MOE modified, pattern not given here) [HPRT-732 MOE] ?
Data returned: 2.087

Data request: And for TCCGGCCTCGGAAGCTCTCT (antisense; 2'-MOE modified, pattern not given here) [MB21D1-168 MOE] ?
Data returned: 0.781

Data request: And for GATGCTCCTCGGTCTCCCTT (antisense; 2'-MOE modified, pattern not given here) [CAMSAP1-1850 MOE] ?
Data returned: 1.954

Data request: And for CGTGTCTGGAAGCTTCCTTT (antisense; 2'-MOE modified, pattern not given here) [CTNN2B-808 MOE] ?
Data returned: 1.222

Data request: And for TGTGATGGCCTCCCATCTCC (antisense; 2'-MOE modified, pattern not given here) [HPRT-332 MOE] ?
Data returned: 0.938

Data request: And for GATGGCCTCCCATCTCCTTC (antisense; 2'-MOE modified, pattern not given here) [HPRT-329 MOE] ?
Data returned: 1.698
